Kindly supply the reported pIC50 values for the records listed here.
System Name: Cholinesterase (Homo sapiens, UniProt P06276)
Sequence (P06276 whole entry): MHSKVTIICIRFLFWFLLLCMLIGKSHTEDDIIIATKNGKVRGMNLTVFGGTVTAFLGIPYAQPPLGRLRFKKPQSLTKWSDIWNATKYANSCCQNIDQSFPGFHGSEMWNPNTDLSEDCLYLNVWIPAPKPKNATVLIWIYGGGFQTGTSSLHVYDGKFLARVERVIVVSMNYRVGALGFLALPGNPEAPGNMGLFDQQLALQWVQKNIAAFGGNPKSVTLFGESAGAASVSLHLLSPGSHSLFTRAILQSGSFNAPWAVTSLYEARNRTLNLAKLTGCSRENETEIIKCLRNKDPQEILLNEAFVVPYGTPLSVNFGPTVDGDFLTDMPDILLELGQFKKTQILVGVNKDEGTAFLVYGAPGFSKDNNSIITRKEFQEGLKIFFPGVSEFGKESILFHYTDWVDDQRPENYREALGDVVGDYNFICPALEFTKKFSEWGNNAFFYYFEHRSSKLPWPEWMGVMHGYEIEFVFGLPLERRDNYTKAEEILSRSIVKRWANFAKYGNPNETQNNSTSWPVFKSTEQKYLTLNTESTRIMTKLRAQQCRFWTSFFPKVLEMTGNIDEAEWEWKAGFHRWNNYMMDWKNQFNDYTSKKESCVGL
Measurement Notes: Inhibition of human serum BuChE using butyrylthiocholine as substrate pretreated for 5 mins followed by substrate addition and measured for 5 mins by Ellman's method
pIC50: −log10 of the molar value.

query: Give the value of pIC50 reported for the following: COc1ccc2oc(C(=O)NC3CCN(Cc4ccccc4)CC3)cc(=O)c2c1
result: < 5.00

query: Give the value of pIC50 reported for the following: Nc1ccc2oc(C(=O)NCCC3CCN(Cc4ccccc4)CC3)cc(=O)c2c1
result: 5.37

query: Give the value of pIC50 reported for the following: COc1ccc2oc(C(=O)NCCC3CCN(Cc4ccccc4)CC3)cc(=O)c2c1
result: 5.19

query: Give the value of pIC50 reported for the following: O=C(NCCC1CCN(Cc2ccccc2)CC1)c1cc(=O)c2cccc(O)c2[nH]1
result: < 5.00

query: Give the value of pIC50 reported for the following: COc1cc2nc(C(=O)NCCC3CCN(Cc4ccccc4)CC3)cc(OC)c2cc1OC
result: 5.06

query: Give the value of pIC50 reported for the following: O=C(NCCC1CCN(Cc2ccccc2)CC1)c1cc(=O)c2ccccc2o1
result: 5.29

query: Give the value of pIC50 reported for the following: COc1cc2oc(C(=O)OCCC3CCN(Cc4ccccc4)CC3)cc(=O)c2cc1OC
result: < 5.00

query: Give the value of pIC50 reported for the following: O=C(NCCC1CCN(Cc2ccccc2)CC1)c1cc(=O)c2cc([N+](=O)[O-])ccc2o1
result: 5.03

query: Give the value of pIC50 reported for the following: O=C(NC1CCN(Cc2ccccc2)CC1)c1cc(=O)c2cc(O)ccc2o1
result: < 5.00

query: Give the value of pIC50 reported for the following: COc1cc2oc(C(=O)NCCC3CCN(Cc4ccccc4)CC3)cc(=O)c2cc1OC
result: < 5.00

query: Give the value of pIC50 reported for the following: COc1cccc2c(=O)cc(C(=O)NCCC3CCN(Cc4ccccc4)CC3)[nH]c12
result: < 5.00

query: Give the value of pIC50 reported for the following: O=C(NCCC1CCN(Cc2ccccc2)CC1)c1cc(=O)c2cc(O)ccc2[nH]1
result: 5.01

query: Give the value of pIC50 reported for the following: O=C(NCCCC1CCN(Cc2ccccc2)CC1)c1cc(=O)c2cc(O)ccc2o1
result: < 5.00

query: Give the value of pIC50 reported for the following: COc1ccc2c(=O)cc(C(=O)NCCC3CCN(Cc4ccccc4)CC3)oc2c1
result: 5.00

query: Give the value of pIC50 reported for the following: COc1cc2oc(C(=O)OCC3CCN(Cc4ccccc4)CC3)cc(=O)c2cc1OC
result: < 5.00

query: Give the value of pIC50 reported for the following: O=C(NCCC1CCN(Cc2ccccc2)CC1)c1cc(=O)c2cc(O)c(O)cc2o1
result: < 5.00

query: Give the value of pIC50 reported for the following: COc1cc2oc(C(=O)NCC3CCN(Cc4ccccc4)CC3)cc(=O)c2cc1OC
result: < 5.00

query: Give the value of pIC50 reported for the following: O=C(NCCC1CCN(Cc2ccccc2)CC1)c1cc(=O)c2c(O)cc(O)cc2o1
result: < 5.00

query: Give the value of pIC50 reported for the following: COc1cc(OC)c2c(=O)cc(C(=O)NCCC3CCN(Cc4ccccc4)CC3)oc2c1
result: 5.20

query: Give the value of pIC50 reported for the following: COc1cc2oc(C(=O)NC3CCN(Cc4ccccc4)CC3)cc(=O)c2cc1OC
result: < 5.00

query: Give the value of pIC50 reported for the following: COc1cccc2oc(C(=O)NCCC3CCN(Cc4ccccc4)CC3)cc(=O)c12
result: < 5.00

query: Give the value of pIC50 reported for the following: COc1ccc2oc(C(=O)OCC3CCN(Cc4ccccc4)CC3)cc(=O)c2c1
result: < 5.00

query: Give the value of pIC50 reported for the following: O=C(NCCC1CCN(Cc2ccccc2)CC1)c1cc(=O)c2cc(O)ccc2o1
result: < 5.00

query: Give the value of pIC50 reported for the following: COc1ccc2c(=O)cc(C(=O)NCCC3CCN(Cc4ccccc4)CC3)[nH]c2c1
result: < 5.00

query: Give the value of pIC50 reported for the following: COc1cc2oc(C(=O)NCCCC3CCN(Cc4ccccc4)CC3)cc(=O)c2cc1OC
result: < 5.00

query: Give the value of pIC50 reported for the following: COc1ccc2[nH]c(C(=O)NCCC3CCN(Cc4ccccc4)CC3)cc(=O)c2c1
result: < 5.00

query: Give the value of pIC50 reported for the following: COc1ccc2oc(C(=O)NCC3CCN(Cc4ccccc4)CC3)cc(=O)c2c1
result: < 5.00

query: Give the value of pIC50 reported for the following: COc1ccc2oc(C(=O)NCCCC3CCN(Cc4ccccc4)CC3)cc(=O)c2c1
result: 5.24

query: Give the value of pIC50 reported for the following: COc1cc2[nH]c(C(=O)NCCC3CCN(Cc4ccccc4)CC3)cc(=O)c2cc1OC
result: < 5.00
